assay: DNDI: Metabolism; assay type: ADME, Microsome; conditions: rat, microsomes; read-out: EH
Property Measured: hepatic extraction ratio

                                smiles_code         property_measured  measurement
0  O=C(C1CC1)N1CCC(N(c2ccc(Cl)cc2)c2cccnc2)CC1  hepatic extraction ratio         0.85
1  Cc1ncsc1C(=O)N1CCC(N(c2ccc(C(F)(F)F)cc2)c2cccnc2)CC1  hepatic extraction ratio         0.67
2  CC(C)(C)CC(=O)N1CCC(N(c2ccc(Cl)cc2)c2cccnc2)CC1  hepatic extraction ratio         0.92
3  CC(C)(C)C(=O)N1CCC(N(c2ccc(C(F)(F)F)cc2)c2cccnc2)CC1  hepatic extraction ratio         0.81

----------
experiment: DNDI: Lipophilicity (gLogD) at pH 7.4; settings: buffer, pH 7.4, logD
Property Measured: chromatographic logD
Field format: numeric only.

>>> print(df.to_string())
                                   molecule  measurement
0  CC(=O)C(C)N1CCC(N(c2ccc(C(F)(F)F)cc2)c2cccnc2)CC1 (configuration not stated)          4.2

Data request: Sample CCC(C(C)=O)N1CCC(N(c2ccc(C(F)(F)F)cc2)c2cccnc2)CC1 (configuration not stated) — what was its chromatographic logD?
Data returned: 4.6

Data request: Entry CCC(C(C)O)N1CCC(N(c2ccc(C(F)(F)F)cc2)c2cccnc2)CC1 (configuration not stated) please
Data returned: 4.3

Data request: What about this molecule? CC(C)C(O)CN1CCC(N(c2ccc(C(F)(F)F)cc2)c2cccnc2)CC1 (configuration not stated)
Data returned: 3.9

Data request: Now this one: COc1ccc(CN2CCC(N(c3ccc(C(F)(F)F)cc3)c3cccnc3)CC2)cc1
Data returned: 4.9

Data request: Another molecule to check: CC(O)C(C)N1CCC(N(c2ccc(C(F)(F)F)cc2)c2cccnc2)CC1 (configuration not stated)
Data returned: 2.9

Data request: And CC(C)(O)CN1CCC(N(c2ccc(C#N)cc2)c2cccnc2)CC1 ?
Data returned: 2.2

Data request: Continue with CC(C)(F)CN1CCC(N(c2ccc(C(F)(F)F)cc2)c2cccnc2)CC1
Data returned: 5.1

----------
assay: DNDI: Stability, 4 hour; assay type: ADME, tissue-based, Canis lupus familiaris; conditions: dog, blood
Property Measured: remaining at 4 h (%)
A number alone suffices; assume %.

Data request: So what's the measured remaining at 4 h for this one? FC(F)(F)c1ccc(N(c2cccnc2)C2CCN(c3ccc(C(F)(F)F)cn3)CC2)cc1
Data returned: 108

----------
experiment: DNDI: Solubility in phosphate buffer at pH 6.5 determined by nephelometry
Property Measured: solubility kinetic (µg/mL)

>>> print(df.to_string())
                                smiles_code   property_measured  unit_tag  measurement
0  FC(F)(F)c1ccc(N(c2cccnc2)C2CCN(c3nccs3)CC2)cc1  solubility kinetic     µg/mL          1.6
1  Cc1noc(C)c1C(=O)N1CCC(N(c2ccc(C(F)(F)F)cc2)c2cccnc2)CC1  solubility kinetic     µg/mL         12.5
2  CC(C)(F)CN1CCC(N(c2ccc(C(F)(F)F)cc2)c2cccnc2)CC1  solubility kinetic     µg/mL          3.1
3  FC(F)(F)c1ccc(N(c2cccnc2)C2CCN(Cc3ccccc3C(F)(F)F)CC2)cc1  solubility kinetic     µg/mL          1.6

[I] O=C(c1ccccc1C(F)(F)F)N1CCC(N(c2ccc(C(F)(F)F)cc2)c2cccnc2)CC1
[II] CC(C)(C)C(=O)N1CCC(N(c2ccc(C(F)(F)F)cc2)c2cccnc2)CC1
[III] CS(=O)(=O)N1CCC(N(c2ccc(Cl)cc2)c2cccnc2)CC1
[IV] O=C(c1ccc(F)cc1)N1CCC(N(c2ccc(C(F)(F)F)cc2)c2cccnc2)CC1
Data request: Rank the items in ascending order with respect to solubility kinetic. Dear reader, please state the labels in the requested order.
Data returned: I, IV, II, III

----------
test: DNDI: Lipophilicity (gLogD) at pH 3; conditions: buffer, pH 3
Property Measured: chromatographic logD

>>> print(df.to_string())
                                smiles_code     property_measured  measurement
0  FC(F)(F)c1ccc(N(c2cccnc2)C2CCN(c3ncccn3)CC2)cc1  chromatographic logD          3.5
1  Cn1nc(C2CC2)cc1N1CCC(N(c2ccc(C(F)(F)F)cc2)c2cccnc2)CC1  chromatographic logD          4.6
2  N#Cc1ccc(N(c2cccnc2)C2CCN(c3ccc(C(F)(F)F)cc3)CC2)cc1  chromatographic logD          4.6
3  O=C(c1ccc(F)cc1)N1CCC(N(c2ccc(C(F)(F)F)cc2)c2cccnc2)CC1  chromatographic logD          3.1
4  N#Cc1cc(C(F)(F)F)ccc1N1CCC(N(c2ccc(Cl)cc2)c2cccnc2)CC1  chromatographic logD          4.7
5  N#Cc1ccc(N(c2cccnc2)C2CCN(c3ccc(F)c(F)c3)CC2)cc1  chromatographic logD          4.2
6  N#Cc1ccccc1N1CCC(N(c2ccc(C(F)(F)F)cc2)c2cccnc2)CC1  chromatographic logD          4.4
7  CN(C)S(=O)(=O)c1cccc(N2CCC(N(c3ccc(C(F)(F)F)cc3)c3cccnc3)CC2)c1  chromatographic logD          4.4

----------
assay: in vitro; settings: human, microsomes
Property Measured: microsomal CLint (µL/min/mg)

These solved cases illustrate the format of a correct answer.
In [3]: df
Out[3]:
                                smiles_code   unit_tag  measurement
0  FC(F)(F)c1ccc(N2CCC(N(c3ccc(C(F)(F)F)cc3)c3cncnc3)CC2)cc1  µL/min/mg         67.5
1  Cn1nc(C2CC2)cc1N1CCC(N(c2ccc(C(F)(F)F)cc2)c2cccnc2)CC1  µL/min/mg          118
2  N#Cc1ccc(N(c2cccnc2)C2CCN(c3ccc(F)c(F)c3)CC2)cc1  µL/min/mg         73.7
3  FC(F)(F)c1ccc(N(c2cccnc2)C2CCN(c3nccs3)CC2)cc1  µL/min/mg          161
4  CC(C)(C)C(=O)N1CCC(N(c2ccc(C(F)(F)F)cc2)c2cccnc2)CC1  µL/min/mg          126
5  Cc1noc(C)c1C(=O)N1CCC(N(c2ccc(C(F)(F)F)cc2)c2cccnc2)CC1  µL/min/mg          147
6  CS(=O)(=O)c1ccc(N2CCC(N(c3ccc(Cl)cc3)c3cccnc3)CC2)cc1  µL/min/mg          132
7  O=C(c1ccc(F)cc1)N1CCC(N(c2ccc(C(F)(F)F)cc2)c2cccnc2)CC1  µL/min/mg          131

[1] O=C(c1ccccc1)N1CCC(N(c2ccc(Cl)cc2)c2cccnc2)CC1
[2] Fc1cnc(N2CCC(N(c3ccc(C(F)(F)F)cc3)c3cccnc3)CC2)nc1
[3] O=C(C1CC1)N1CCC(N(c2ccc(Cl)cc2)c2cccnc2)CC1
[4] CN(C)S(=O)(=O)c1cccc(N2CCC(N(c3ccc(C#N)cc3)c3cccnc3)CC2)c1
Data request: Hello, I need these entries ordered by microsomal CLint, highest reading first. Thanks! Would you mind listing the labels in the order asked for?
Data returned: 4, 1, 3, 2

----------
test: DNDI: Cytotoxicity against L-6 rat myoblasts from skeletal musclE; conditions: L6 rat skeletal muscle myoblasts, IC50
Property Measured: IC50 (µM)
Form entry: value (µM) — number only.

As a guide, the following entries are already answered.
                                   compound  property_measured  unit_tag  measurement
0  COc1ccc(CN2CCC(N(c3ccc(C(F)(F)F)cc3)c3cccnc3)CC2)cc1               IC50        µM         16.3
1  CC(=O)C(C)N1CCC(N(c2ccc(C(F)(F)F)cc2)c2cccnc2)CC1 (stereo not given)               IC50        µM           69
2  Cc1ccc(CN2CCC(N(c3ccc(C(F)(F)F)cc3)c3cccnc3)CC2)cc1               IC50        µM         45.6
3  FC(F)(F)c1ccc(N(c2cccnc2)C2CCN(c3ncccn3)CC2)cc1               IC50        µM         53.9
4  N#Cc1cc(C(F)(F)F)ccc1N1CCC(N(c2ccc(C(F)(F)F)cc2)c2cccnc2)CC1               IC50        µM         24.3
5  CC(C)(C)OC(=O)N1CCC(N(c2ccc(C(F)(F)F)cc2)c2cccnc2)CC1               IC50        µM         22.2
6  O=C(c1ccc(F)cc1)N1CCC(N(c2ccc(C(F)(F)F)cc2)c2cccnc2)CC1               IC50        µM         54.3
7  CCC(C(C)=O)N1CCC(N(c2ccc(C(F)(F)F)cc2)c2cccnc2)CC1 (stereo not given)               IC50        µM           25
8  FC(F)(F)c1ccc(N(c2cccnc2)C2CCN(Cc3cccc(C(F)(F)F)c3)CC2)cc1               IC50        µM         52.1
9  CC(C)(C)OC(=O)N1CCC(N(c2ccc(Cl)cc2)c2cccnc2)CC1               IC50        µM         52.8

Data request: What value of IC50 has been reported for the following compound? Cc1cccc(CN2CCC(N(c3ccc(C(F)(F)F)cc3)c3cccnc3)CC2)c1
Data returned: 42.9

Data request: Then what about the compound CC(C)C(O)CN1CCC(N(c2ccc(C(F)(F)F)cc2)c2cccnc2)CC1 (stereo not given) ?
Data returned: 51.5

Data request: Could you do the same for O=C(c1c(F)cccc1F)N1CCC(N(c2ccc(C(F)(F)F)cc2)c2cccnc2)CC1 , please?
Data returned: 48.9
